growth by entry:
test system: NCI-H23 lung; test: NCI-60 one-dose screen, 48 h (100 = growth as untreated, 0 = no growth, -100 = all killed); settings: 10 µM unless noted
The panel holds about 83,000 compounds, 20% with a hit somewhere; the sample as a whole holds those more often.

COMPOUND: CCOC(=O)c1c(NC(=O)c2ccc(C(C)(C)C)cc2)sc2cc(O)ccc12
growth (%): 89.8
//
COMPOUND: COc1cc(Nc2c3ccc(Cl)cc3nc3ccc(OC)cc23)c2ncccc2c1
growth (%): 50
//
COMPOUND: COc1ccc(/C=C/C(=O)c2cc3c(N)c(C(=O)Nc4ccccc4C)sc3nc2C)cc1
growth (%): 36.1
//
COMPOUND: Nc1c(C(=O)O)cc(Cl)cc1[N+](=O)[O-]
growth (%): 90.6
//
COMPOUND: CC/C=C\C/C=C/C=C1/C(=O)C=C[C@@H]1C/C=C\CCCC(=O)OC
growth (%): 24.9
//
COMPOUND: COc1cc(C2=NN(C(C)=O)C(c3ccc(N(C)C)cc3)C2)cc(OC)c1OC (stereo not given)
growth (%): 88.8
//
COMPOUND: CCc1cccc(Sc2cc(C(=O)N3Cc4ccc(OCCN(C)C)cc4C3)ccc2O)c1
growth (%): 41.2
//
COMPOUND: COc1cc2c3c(c1O)-c1ccccc1[C@@H]1OC(=O)N(CC2)[C@H]31
growth (%): 100
//
COMPOUND: COc1cc(C2Cc3ncccc3-c3[nH]c(=O)c4cccnc4c32)cc(OC)c1OC (stereo not given)
growth (%): 35.3
//
COMPOUND: Cn1c(O)c(C(/C=C/c2ccccc2)=Nc2ccccc2N)c(=O)n(C)c1=O
growth (%): 94.2

----------
Test system: EKVX NSCLC
Test: NCI-60 one-dose screen, 48 h (100 = growth as untreated, 0 = no growth, -100 = all killed)
Conditions: 10 µM unless noted
Experimental: Growth inhibition of the EKVX human Non-Small Cell Lung tumor cell line is measured as a screen for anti-cancer activity. Cells are grown in 96 well plates and exposed to the test compound for 48 hours. Compounds are tested at a single concentration, which is 10^-5 M for most compounds. The reported endpoint is percent growth (GI% or GIPRCNT), where numbers from 0 - 100% represent growth inhibition, and numbers from -100% - 0 represent cell death. […]
Compounds without any hit were thinned out: in the full panel of roughly 83,000, 20% have a hit.
Mark True only for growth values smaller than 50%; exact matches and larger values are False.

SMILES_RECORD: C#CCn1cnc2c(Nc3cccc(NC(=O)CCl)c3)ncnc21
ANSWER_LABEL: True
//
SMILES_RECORD: C#CC#CC#CC#CC#CC#CC#CC#CC[C@H]1OC[C@H](COC(=O)O[C@@H](C(=O)O[C@H]2C[C@@]3(O)[C@@H](OC(=O)c4ccccc4)[C@@H]4[C@]5(OC(C)=O)CO[C@@H]5C[C@H](O)[C@@]4(C)C(=O)[C@H](OC(C)=O)C(=C2C)C3(C)C)[C@@H](NC(=O)c2ccccc2)c2ccccc2)O1
ANSWER_LABEL: False
//
SMILES_RECORD: COP(=O)(OC)c1nnn(-c2cccc([N+](=O)[O-])c2)c1C
ANSWER_LABEL: False
//
SMILES_RECORD: CN(C)c1ccc(/C=C/C(=O)c2ccc(Nc3nc(Nc4ccc(F)cc4)nc(Nc4ccc(Cl)cc4)n3)cc2)cc1
ANSWER_LABEL: False
//
SMILES_RECORD: CN1C(=O)/C(=C/c2ccc(C(=O)Nc3ncc(Cc4ccc(F)cc4)s3)cc2)SC1=S
ANSWER_LABEL: True
//
SMILES_RECORD: COc1ccc(NC(=O)c2sc3nc4c(cc3c2N)CCCC4)cc1
ANSWER_LABEL: True
//
SMILES_RECORD: Cn1cc(-c2nonc2-c2c[nH]c3ccccc23)c2ccccc21
ANSWER_LABEL: True
//
SMILES_RECORD: N/C(=N\c1nc2ccccc2s1)NC(=NC1CCCCC1)NC1CCCCC1
ANSWER_LABEL: True
//
SMILES_RECORD: CCN(CC)c1ccc(N2C(=O)/C(=C/c3cccs3)SC2=S)cc1
ANSWER_LABEL: False
